Source listed as patent US20190127480A1.

pEC50 values, listed per item
# EXPERIMENTAL_TARGET: T1, human CD3 expressed on cells (Jurkat cells; human T-cells of PBMC) (human, UniProt P09693 23-182; P20963 22-164)
# T1 construct: whole, on cells; Native CD3 on the cell surface; also called hPBMC
# T1 sequence (chain, as listed by the source, chain 1 of 4): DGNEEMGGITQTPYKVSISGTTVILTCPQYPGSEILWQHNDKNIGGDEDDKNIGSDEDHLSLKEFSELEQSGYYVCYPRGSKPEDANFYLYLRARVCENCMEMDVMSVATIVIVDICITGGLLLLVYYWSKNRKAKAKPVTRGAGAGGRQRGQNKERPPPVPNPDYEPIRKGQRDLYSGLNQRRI
# T1 sequence (chain, as listed by the source, chain 2 of 4): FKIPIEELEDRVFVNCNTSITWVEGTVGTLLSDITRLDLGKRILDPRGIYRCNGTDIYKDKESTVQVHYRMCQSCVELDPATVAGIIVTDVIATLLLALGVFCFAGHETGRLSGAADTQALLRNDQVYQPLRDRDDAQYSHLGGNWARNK
# T1 sequence (P09693 23-182, chain 3 of 4): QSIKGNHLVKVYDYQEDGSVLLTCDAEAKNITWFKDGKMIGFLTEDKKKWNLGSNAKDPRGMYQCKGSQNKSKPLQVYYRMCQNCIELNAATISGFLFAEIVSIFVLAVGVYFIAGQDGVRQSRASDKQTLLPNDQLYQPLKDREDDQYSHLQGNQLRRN
# T1 sequence (P20963 22-164, chain 4 of 4): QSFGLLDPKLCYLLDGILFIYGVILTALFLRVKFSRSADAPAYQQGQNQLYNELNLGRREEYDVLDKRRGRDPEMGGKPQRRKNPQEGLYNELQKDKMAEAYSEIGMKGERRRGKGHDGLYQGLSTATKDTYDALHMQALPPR
# MEASUREMENT_PROTOCOL: FACS titration on Jurkat cells (CD3+ human T-cell line)
# Description: FACS data was acquired using the following protocol: Cells at 2×10⁵ per well were incubated with serially diluted antibodies for 30 min on ice. […] After incubation, cells were washed, re-suspended in cold PBS containing 1% BSA and analyzed by flow cytometry with viable Jurkat cells gated by side and forward scatters. The EC₅₀s for cell binding titration were determined using Prism software with values calculated using a 4-parameter non-linear regression analysis.
Please treat pEC50 as minus the base-10 logarithm of the molar concentration.

Study these solved cases before continuing.
>>> recorded_value("H1H5798B (antibody, human IgG1, V domains shown, H1H: human IgG1 Fc) VH: QVQLVQSGGGLVKPGGSLRLSCAASGFTFSSYDMSWVRQAPGKGLEWVSYISSSGNTIHYADSVKGRFTISRDNSKNSLYLQMNSLRAEDTAVYYCAKAGPATVTRRYYYYYGLDVWGQGTTVTVSS VL: DIVMTQSPSSLSASVRDRVTITCRASQRISSYLNWFQQKPGKAPKVLIYTASSLQNGVPSRFSGSGSGTDFTLTISSLQPEDFATYYCQQSYRTPLTFGGGTKVEIKR")
8.25
>>> recorded_value("H1H5791B (antibody, human IgG1, V domains shown, H1H: human IgG1 Fc) VH: QVQLVESGAEVKKPGASVKVSCKTSGYTLSGYYMHWMRQAPGQGLEWMGWINPKSGVTNYAQKFQDRVAMTRDTSISTAYMELSRLRSDDTAVYYCARMGDGAVFDFWAQGTLVTVSS VL: DIQLTQSPSSLSASVGDRVTITCRASQRISSFLNWYQQKPGKAPKLLIYTASNLQNGVPSRFSGSGSGTDFTLTISSLQPEDFATYYCQQSYRTPLTFGGGTKLEIKR")
8.42
>>> recorded_value("H1H5797B (antibody, human IgG1, V domains shown, H1H: human IgG1 Fc) VH: QVQLVQSGTEVKKPGASVKVSCKASGYTFTGYYMHWVRQAPGQGLEWMGWINPNSDVTNYAQKFQGRVTLTRDTSISTAYIDLSRLRSDDTAIYYCARMGDGAVFDYWGQGTLVTVSS VL: DIQMTQSPSSLSASVGDRVTITCRASQRISSYLNWYQQKPGKAPKVLISVASSLQSGVPSRFSGSGSGTDFTLTISSLQPEDFASYYCQQSYNTPLTFGGGTKVEIKR")
7.40
>>> recorded_value("H1H5781P (antibody, human IgG1, V domains shown, H1H: human IgG1 Fc) VH: EVQLVESGGGLVQPGRSLRLSCAASGFTFDDFTMHWVRQAPGKGLEWVSDISWNSGSIDYADSVKGRFTISRDNARNSLFLQMSSLRTEDTASYYCIKDKSGYGSYNYGLDVWGQGTTVTVSS VL: EIVLTQSPGTLSLSPGDRATLSCRASQSVSSIYLAWYQQKPGQAPRLLIHGASTRATGIPDRFSGSGSGTDFTLTISRLEPEDFALYYCHQRVSSPYTFGQGTKLEIK")
8.91

Lab note: next binder to report on.
# pEC50 lookup, item H1H5772S (antibody, human IgG1, V domains shown, H1H: human IgG1 Fc; also called H1H5772P) VH: QVQLVESGGGLVQPGRSLRLSCAASGFSFDDYAMHWVRQAPGQGLEWVSGISWNGGSRDYADSVKGRFTISRDNARNSLFLQMNSLFTEDTALYYCAKDKSGYGSYFYGMDVWGQGTTVTVSS VL: EIVLTQSPGILSLSPGDRATLSCRASQSIRNIYLAWYQQKPGQAPRLLIHGASTRATGIPDRFSGSGSGTDFTLTISRLEPEDFAVYYCQQRVSSPYTFGQGTKLEIK
9.18
